Data credit: ChEMBL document CHEMBL1147972

assay: Solubility of the compound; format: physicochemical
measured.parameter: Solubility

Return the recorded Solubility value; entry: CCCC[C@H]1CN2CCc3cc(OC)c(OC)cc3[C@@H]2C[C@@H]1N
> 414 µg/mL

Return the recorded Solubility value; entry: COc1cc2c(cc1OC)[C@@H]1C[C@H](N)[C@@H](c3cccc(C)c3)CN1CC2
> 469 µg/mL

====

target: Cytochrome P450 3A4 (Homo sapiens)
Sequence (P08684 whole entry): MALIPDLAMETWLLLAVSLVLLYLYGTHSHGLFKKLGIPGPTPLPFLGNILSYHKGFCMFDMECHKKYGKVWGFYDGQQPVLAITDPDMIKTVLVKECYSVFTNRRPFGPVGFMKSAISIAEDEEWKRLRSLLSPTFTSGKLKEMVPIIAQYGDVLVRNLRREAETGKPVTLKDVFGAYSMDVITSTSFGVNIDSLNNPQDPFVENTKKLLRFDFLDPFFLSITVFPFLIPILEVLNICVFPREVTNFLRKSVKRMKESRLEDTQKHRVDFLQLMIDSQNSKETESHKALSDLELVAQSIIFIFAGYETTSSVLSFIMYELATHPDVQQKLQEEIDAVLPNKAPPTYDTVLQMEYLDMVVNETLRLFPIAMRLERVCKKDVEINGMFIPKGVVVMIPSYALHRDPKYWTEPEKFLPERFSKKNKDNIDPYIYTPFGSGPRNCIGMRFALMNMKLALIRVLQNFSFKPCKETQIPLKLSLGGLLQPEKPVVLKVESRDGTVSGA
measured.parameter: IC50

Return the recorded IC50 value; entry: COc1cc2c(cc1OC)[C@@H]1C[C@H](N)[C@@H](c3cccc(C)c3)CN1CC2
> 50 µM

====

Some molecules, each annotated with its measured clearance.
system: Liver microsomes; test: Clearance in human liver microsome; assay type: ADME
Give the number; µL/min/mg is assumed, so skip it.

{"columns": ["chemical.smiles", "measured.parameter", "test.result"],
 "data": [
  ["CCCC[C@H]1CN2CCc3cc(OC)c(OC)cc3[C@@H]2C[C@@H]1N", "clearance", 0]
]}

Please look at the following molecule next.
Return the recorded clearance value; entry: COc1cc2c(cc1OC)[C@@H]1C[C@H](N)[C@@H](c3cccc(C)c3)CN1CC2
3

====

Some compounds, each annotated with its measured clearance.
system: Liver microsomes; test: Clearance in rat liver microsome; format: ADME
Express the reported value numerically, then name its unit.

Return the recorded clearance value; entry: COc1cc2c(cc1OC)[C@@H]1C[C@H](N)[C@@H](c3cccc(C)c3)CN1CC2
1 µL/min/mg

Return the recorded clearance value; entry: CCCC[C@H]1CN2CCc3cc(OC)c(OC)cc3[C@@H]2C[C@@H]1N
4.7 µL/min/mg
